// provenance: the supplement of paper PMC10567573

B1: AUP1 (parent)
chain: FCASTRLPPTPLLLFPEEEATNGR

Variants of: B1
Experiment: protein stability index of a GFP-peptide fusion (GPS, HEK-293T) (PSI 1-6); higher = more stable;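 note: lentivirally expressed fusions sorted by FACS into six bins by GFP to DsRed ratio, PSI derived from sequencing read proportions per bin multiplied by bin number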
Conditions: c terminus: a fixed tail appended
quantityMeasured: protein stability index

>>> result("R24H")
2.76
>>> result("F1M")
4.27
>>> result("C2L")
3.39
>>> result("E18N")
2.37
>>> result("G23W")
1.69
>>> result("A20M")
2.88
>>> result("T21M")
2.46
>>> result("R24T")
3.24
>>> result("G23K")
2.62
>>> result("F15N")
3.44
>>> result("E19I")
2.02
>>> result("L13H")
3.4
>>> result("P16M")
2.15
>>> result("N22R")
2.73
>>> result("L12K")
3.6
